Test: RP, Phenomenex Kinetex EVO C18, 100 × 2.1 mm, 2.6 µm, 40 °C, 0.4 mL/min, estimated dead time 0.55 min; A: water + 0.2% formic acid; B: acetonitrile + 0.2% formic acid; gradient (min/%B) 0/5 0.5/5 7/95 8/95 8.5/5 12/5
Conditions: stereoisomer not certain
// reported LC retention time for each item listed
Give me the value, and tack the unit on after it.

Field: example entries. Status: answers known.
>  <Molecule>
COc1ccc(C2CC(=O)c3c(O)cc(O)cc3O2)cc1OC1OC(C(=O)O)C(O)C(O)C1O (stereo unspecified) [Hesperetin 3'-O-glucuronide]

>  <LC retention time>
5.32 min

$$$$
>  <Molecule>
O=C1CC(c2ccc(OC3OC(C(=O)O)C(O)C(O)C3O)cc2)Oc2cc(O)cc(O)c21 (stereo unspecified) [Naringenin-4'-O-glucuronide]

>  <LC retention time>
5.18 min

$$$$
>  <Molecule>
O=C1CCC(Cc2cccc(OC3OC(C(=O)O)C(O)C(O)C3O)c2)O1 (stereo unspecified) [5-Phenyl-gamma-valerolactone-3'-glucuronide]

>  <LC retention time>
4.31 min

$$$$
>  <Molecule>
O=C(O)C1OC(Oc2cc(O)cc(C=Cc3ccc(O)cc3)c2)C(O)C(O)C1O (stereo unspecified) [Resveratrol 3-O-glucuronide]

>  <LC retention time>
4.85 min

$$$$
>  <Molecule>
COc1cc(CCC(=O)O)ccc1OS(=O)(=O)O [Dihydroferulic acid-4-O-Sulfate]

>  <LC retention time>
4.36 min

$$$$
>  <Molecule>
O=C(O)c1cc(O)c(O)c(O)c1 [Gallic acid]

>  <LC retention time>
0.96 min

$$$$

// query What does the record list as LC retention time for O=C(O)C=Cc1ccc(OC2OC(C(=O)O)C(O)C(O)C2O)c(O)c1 (stereo unspecified) [Caffeic acid-4-glucuronide] ?
// result 2.45 min

// query What does the record list as LC retention time for O=C1CCC(Cc2cccc(OS(=O)(=O)O)c2)O1 (stereo unspecified) [5-Phenyl-gamma-valerolactone-3'-sulfate] ?
// result 4.96 min

// query What does the record list as LC retention time for O=C(O)CCc1ccc(O)c(OC2OC(C(=O)O)C(O)C(O)C2O)c1 (stereo unspecified) [Dihydrocaffeic acid-3-O-glucuronide] ?
// result 3.22 min

// query What does the record list as LC retention time for O=Cc1ccc(O)cc1 [4-Hydroxybenzaldehyde] ?
// result 3.43 min

====

Assay: RP, Waters ACQUITY UPLC BEH Shield RP18, 150 × 2.1 mm, 1.7 µm, 40 °C, 0.4 mL/min, estimated dead time 0.83 min; A: water + 0.1% formic acid, pH 3; B: acetonitrile + 0.1% formic acid, pH 3; gradient (min/%B) 0/0 30/50 31/100 37/100 37.1/0
Conditions: stereoisomer not certain
Value kind: LC retention time (min)
# value in min; strip the unit string

>  <Compound>
O=C(O)C=Cc1ccc(O)cc1

>  <Recorded value>
10.8

$$$$
>  <Compound>
CC1=C2C(=O)C=C(COC(=O)C(=O)O)C2C2OC(=O)C(C)C2C(O)C1 (stereo not given) [Dihydrolactucin-15-oxalate]

>  <Recorded value>
9.7

$$$$
>  <Compound>
O=C(O)Cc1ccc(O)cc1 [4-Hydroxyphenylacetic acid]

>  <Recorded value>
5.41

$$$$

// query What does the record list as LC retention time for COc1cc(C=CC(=O)O)cc(OC)c1OC ?
// result 15.8

// query What does the record list as LC retention time for O=C(O)CNC(=O)c1ccccc1 ?
// result 5.38
